Test System: VMAT2 (Homo sapiens, UniProt Q05940)
Sequence (Q05940 whole entry): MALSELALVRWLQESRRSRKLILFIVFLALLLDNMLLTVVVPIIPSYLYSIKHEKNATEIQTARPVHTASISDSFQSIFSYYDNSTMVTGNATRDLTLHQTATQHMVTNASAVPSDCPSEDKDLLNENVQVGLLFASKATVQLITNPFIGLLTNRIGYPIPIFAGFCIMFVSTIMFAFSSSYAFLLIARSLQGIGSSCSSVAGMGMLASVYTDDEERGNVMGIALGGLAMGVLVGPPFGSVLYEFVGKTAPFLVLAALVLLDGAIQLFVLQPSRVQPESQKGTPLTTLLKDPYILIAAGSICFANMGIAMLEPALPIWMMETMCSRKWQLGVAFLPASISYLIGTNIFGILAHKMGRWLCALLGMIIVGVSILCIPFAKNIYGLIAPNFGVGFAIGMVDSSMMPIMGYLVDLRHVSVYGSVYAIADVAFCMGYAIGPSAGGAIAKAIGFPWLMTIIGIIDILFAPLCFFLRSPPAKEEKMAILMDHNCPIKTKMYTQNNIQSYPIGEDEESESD
Assay Explanation: hVMAT2 [3H]DTBZ ([3H]DHTB) binding assay
Set-up: expressed in transfected cells; host or cells: HEK (human embryonic kidney) cells
Particulars: HEK-hVMAT2 membranes; series 5 ligands tested as hydrochloride salts
# pKi values compiled below
Scale: negative log10 of molar concentration, which is what pKi denotes.

Solved cases below.
Compound | pKi
CCOC(=O)[C@H]1CN(CCn2c(=O)[nH]c3ccccc3c2=O)CC[C@H]1c1ccc(C(C)C)cc1 (racemic) | 5.79
O=C(c1ccc(F)cc1)C1CCN(CCn2c(=O)[nH]c3ccccc3c2=O)CC1 | 6.92
CC1CN(CCn2c(=O)[nH]c3ccccc3c2=O)CCC1C(=O)c1ccc(F)cc1 (racemic) | 6.56

From here, focus on the item given below.
Identify measured pKi obtained with VMAT2 (Homo sapiens, UniProt Q05940) for `O=c1[nH]c2ccccc2c(=O)n1CCN1CC=C(c2ccccc2)CC1` .
6.09

###

Test System: VMAT2 (Homo sapiens)
Assay Explanation: hVMAT2 5HT Uptake
Assay type: biochemical
Set-up: expressed in transfected cells; host or cells: HEK (human embryonic kidney) cells
Particulars: [^3H]5HT uptake, HEK-hVMAT2 preparation; read-out: hVMAT2 5HT Uptake IC50 (nM) ± SEM
As shown below, each of these compounds has a reported log10 IC50 value.
Please note: log10 values; quantity IC50; unit nM.

Compound | log10 IC50
CCOC(=O)[C@H]1CN(CCn2c(=O)[nH]c3ccccc3c2=O)CC[C@H]1c1ccc(CC)cc1 (racemic) [Compound 5t] | 2.96
CCOC(=O)[C@H]1CN(CCn2c(=O)[nH]c3ccccc3c2=O)CC[C@H]1c1cccc(C)c1 (racemic) [Compound 5y] | 1.72
CCOC(=O)[C@H]1CN(CCn2c(=O)[nH]c3ccccc3c2=O)CC[C@H]1c1ccc(O)c(O)c1 (racemic) [Compound 5ff] | 2.52
CCOC(=O)[C@@H]1CN(CCn2c(=O)[nH]c3ccccc3c2=O)CC[C@@H]1c1ccc(C)cc1 (racemic) [Compound 5b] | 2.50
CCOC(=O)[C@@H]1CN(CCn2c(=O)[nH]c3sccc3c2=O)CC[C@@H]1c1cccc(C(F)(F)F)c1 (relative stereo) [Compound 7d] | 2.53
CCOC(=O)C1=C(c2ccccc2C(F)(F)F)CCN(CCn2c(=O)[nH]c3ccccc3c2=O)C1 [Compound 5hh] | 2.52
CCOC(=O)[C@H]1CN(CCn2c(=O)[nH]c3ccccc3c2=O)CC[C@H]1c1ccc(OC)cc1 (racemic) [Compound 5r] | 1.56

Note log10 IC50 for the compound shown: O=C(c1ccc(F)cc1)C1CCN(CCn2c(=O)[nH]c3ccccc3c2=O)CC1 [R1=H, R2=H]
2.15

###

Test System: VMAT2 (Homo sapiens)
Assay Explanation: hVMAT2 [3H]DTBZ ([3H]DHTB) binding assay
Parameters: expressed in transfected cells; host or cells: HEK (human embryonic kidney) cells
Particulars: cells printed in μM under a head in nM; HEK-hVMAT2 membranes
Attribute Measured: Ki

Compound | Ki
CCOC(=O)[C@H]1CN(CCn2c(=O)[nH]c3ccccc3c2=O)CC[C@H]1c1ccc(OC)c(OC)c1 (racemic) | > 10 µM
CCOC(=O)[C@@H]1CN(CCn2c(=O)[nH]c3ccccc3c2=O)CC[C@@H]1c1ccc(C(C)O)cc1 (mixture of isomers) | > 9 µM
CCOC(=O)[C@H]1CN(CCn2c(=O)[nH]c3ccccc3c2=O)CC[C@H]1c1ccccc1C (racemic) | > 5 µM
CCOC(=O)[C@@H]1CN(CCn2c(=O)[nH]c3ccccc3c2=O)CC[C@@H]1c1cccc(Cl)c1 (racemic) | > 9 µM
CCOC(=O)[C@H]1CN(CCn2c(=O)[nH]c3ccccc3c2=O)CC[C@H]1c1ccc(OC)cc1 (racemic) | > 10 µM

Under VMAT2 (Homo sapiens), report Ki for CCOC(=O)[C@@H]1CN(CCn2c(=O)[nH]c3ccccc3c2=O)CC[C@@H]1c1ccc(C(N)=O)cc1 (racemic)
> 3 µM

Would you please give the reported Ki of CCOC(=O)[C@H]1CN(CCn2c(=O)[nH]c3ccccc3c2=O)CC[C@H]1c1ccccc1F (racemic) with VMAT2 (Homo sapiens)?
> 10 µM

Give Ki only, for `O=C(c1ccc(F)cc1)C1CCN(CCn2c(=O)[nH]c3ccc(Br)cc3c2=O)CC1` , using VMAT2 (Homo sapiens) data.
> 3 µM

Write down the reported Ki (system: VMAT2 (Homo sapiens)) of CCOC(=O)[C@H]1CN(CCn2c(=O)[nH]c3ccccc3c2=O)CC[C@H]1c1cccc(N(C)C)c1 (racemic)
> 10 µM

Name the recorded Ki of CCOC(=O)[C@H]1CN(CCn2c(=O)[nH]c3ccccc3c2=O)CC[C@H]1c1cccc(OC)c1 (racemic) , assay system VMAT2 (Homo sapiens).
> 10 µM

Give Ki for CCOC(=O)[C@@H]1CN(CCn2c(=O)[nH]c3ccccc3c2=O)CC[C@@H]1c1ccc(F)c(F)c1 (racemic) tested on VMAT2 (Homo sapiens).
> 10 µM

###

Structures can show the parent of a compound that is named as a salt.
Entries and their measured melting point follow.

Check out these entries, answers already filled in.
Molecule | melting point
CCOC(=O)[C@H]1CN(CCn2c(=O)[nH]c3ccccc3c2=O)CC[C@H]1c1ccccc1F (racemic) [Compound 5x] | 182.8 to 183.6 °C
CCOC(=O)[C@H]1CN(CCn2c(=O)[nH]c3ccccc3c2=O)CC[C@H]1c1ccc(OC)cc1 (racemic) (as salt: HCl) [Compound 5r] | 153 to 154 °C
CCOC(=O)[C@H]1CN(CCn2c(=O)[nH]c3ccccc3c2=O)CC[C@H]1c1cccc(C)c1 (racemic) (as salt: HCl) [Compound 5y] | 148.5 to 150 °C
CCOC(=O)[C@H]1CN(CCCn2c(=O)[nH]c3ccccc3c2=O)CC[C@H]1c1ccc(F)cc1 (racemic) [n=2] | 171.8 to 172.4 °C
CCOC(=O)[C@H]1CN(CCn2c(=O)[nH]c3ccccc3c2=O)CC[C@H]1CCc1ccccc1 (racemic) (as salt: HCl) [Compound 5v] | 140 to 141 °C
CCOC(=O)[C@H]1CN(CCn2c(=O)[nH]c3ccccc3c2=O)CC[C@H]1c1ccc(CC)cc1 (racemic) (as salt: HCl) [Compound 5t] | 145 to 146 °C
O=c1[nH]c2ccccc2c(=O)n1CCN1CCC(c2ccc(F)cc2)CC1 [Compound 16] | 263 to 264 °C
CCOC(=O)[C@@H]1CN(CCn2c(=O)[nH]c3ccccc3c2=O)CC[C@@H]1c1cccc(Cl)c1 (racemic) [Compound 5pp] | 161.8 to 162.9 °C

Complete the entry with melting point for CCOC(=O)[C@@H]1CN(CCn2c(=O)[nH]c3ccccc3c2=O)CC[C@@H]1c1ccc(C(C)O)cc1 (mixture of isomers) [Compound 5p]
187 to 188 °C

Return the recorded melting point value; entry: CCOC(=O)[C@H]1CN(CCn2c(=O)[nH]c3ccccc3c2=O)CC[C@H]1c1ccc(OC(F)(F)F)cc1 (racemic) (as salt: HCl) [Compound 5ii]
150 to 151.5 °C

###

Test System: VMAT2 (Homo sapiens, UniProt Q05940)
Assay Explanation: hVMAT2 [3H]DTBZ ([3H]DHTB) binding assay
Design: expressed in transfected cells; host or cells: HEK (human embryonic kidney) cells
Particulars: cells printed in μM under a head in nM; HEK-hVMAT2 membranes
Attribute Measured: Ki

Compound | Attribute Measured | Value Reported
CCOC(=O)[C@@H]1CN(CCn2c(=O)[nH]c3sccc3c2=O)CC[C@@H]1c1ccc(C(F)(F)F)cc1 (racemic) | Ki | > 10 µM
CC1CN(CCn2c(=O)[nH]c3ccccc3c2=O)CCC1C(=O)c1ccc(F)cc1 (single isomer, unassigned) | Ki | > 6.4 µM
CCOC(=O)[C@@H]1CN(CCn2c(=O)[nH]c3ccccc3c2=O)CC[C@@H]1c1ccc(Cl)cc1 (racemic) | Ki | > 10 µM

Please supply the value of reported Ki for the item CCOC(=O)[C@@H]1CN(CCn2c(=O)c3ccccc3n(Cc3ccccc3)c2=O)CC[C@@H]1c1ccc(F)cc1 (racemic)
> 7 µM
